The measured values listed here are drawn from paper PMC7794297.

Subject Of Test: bovine serum albumin (BSA) (Bos taurus)
Sequence (P02769 25-607): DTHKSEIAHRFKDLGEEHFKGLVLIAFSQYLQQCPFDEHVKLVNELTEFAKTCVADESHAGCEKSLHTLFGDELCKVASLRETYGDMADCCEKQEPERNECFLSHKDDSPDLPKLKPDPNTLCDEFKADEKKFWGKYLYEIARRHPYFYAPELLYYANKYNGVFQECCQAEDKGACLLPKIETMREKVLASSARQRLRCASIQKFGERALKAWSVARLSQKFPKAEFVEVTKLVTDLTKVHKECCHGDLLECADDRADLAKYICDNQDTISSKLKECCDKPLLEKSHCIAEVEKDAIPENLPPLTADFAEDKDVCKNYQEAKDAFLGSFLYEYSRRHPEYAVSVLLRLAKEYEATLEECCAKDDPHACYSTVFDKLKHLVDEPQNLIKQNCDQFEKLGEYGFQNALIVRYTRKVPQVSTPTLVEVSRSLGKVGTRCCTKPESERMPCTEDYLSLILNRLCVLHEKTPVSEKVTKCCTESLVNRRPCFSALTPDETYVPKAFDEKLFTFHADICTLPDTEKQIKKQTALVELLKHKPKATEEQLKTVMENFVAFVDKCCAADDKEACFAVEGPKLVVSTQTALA
Experimental Protocol: BSA-directed DCL of building blocks 1-4
Parameters: purchased Roche; key: normalized change of relative peak area (RPA) vs blank DCL
Particulars: blank vs BSA-DCL; BSA 57 µM, Secox 5% mol, 24 h
NC of RPA overview

O=C(O)c1cccc(SSc2cc(C(=O)O)c(SSc3ccccc3)cc2C(=O)O)c1 [(2)(3)(4)]: 0,95
O=C(O)c1cc(SSc2ccccc2)cc(SSc2ccccc2)c1 [(1)(4)2]: 45,89
O=C(O)c1cccc(SSc2cccc(C(=O)O)c2)c1 [(3)2, 3,3'-disulfanediyldibenzoic acid]: -0,64
O=C(O)c1cccc(SSc2cc(SSc3cc(SSc4cccc(C(=O)O)c4)cc(C(=O)O)c3)cc(C(=O)O)c2)c1 [(1)2(3)2]: 0,63

Tell me the measured NC of RPA of O=C(O)c1cc(SSc2ccccc2)c(C(=O)O)cc1SSc1ccccc1 [(2)(4)2] , please.
1,30

Tell me the measured NC of RPA of O=C(O)c1cccc(SSc2cc(SSc3ccccc3)cc(C(=O)O)c2)c1 [(3)(1)(4)] , please.
2,28

###

Experimental Protocol: NADPH-templated DCL of building blocks 1-4;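 also: values are means ± SD of DCC experiments run in triplicate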
Particulars: 0% Secox
Normalized Change of RPA (NC) overview

# count of solved cases: 2
O=C(O)c1cc2cc(c1)SSc1cc(cc(C(=O)O)c1)SSc1cc(cc(C(=O)O)c1)SSc1cc(cc(C(=O)O)c1)SS2: -0,84
c1ccc(SSc2ccccc2)cc1: -1,00

Tell me the measured Normalized Change of RPA (NC) of O=C(O)c1cccc(SSc2cc(SSc3cc(SSc4cccc(C(=O)O)c4)cc(C(=O)O)c3)cc(C(=O)O)c2)c1 , please.
-0,06

###

NC of RPA overview
Subject Of Test: glucose oxidase (GOx) (Aspergillus niger)
Sequence (P13006 17-605): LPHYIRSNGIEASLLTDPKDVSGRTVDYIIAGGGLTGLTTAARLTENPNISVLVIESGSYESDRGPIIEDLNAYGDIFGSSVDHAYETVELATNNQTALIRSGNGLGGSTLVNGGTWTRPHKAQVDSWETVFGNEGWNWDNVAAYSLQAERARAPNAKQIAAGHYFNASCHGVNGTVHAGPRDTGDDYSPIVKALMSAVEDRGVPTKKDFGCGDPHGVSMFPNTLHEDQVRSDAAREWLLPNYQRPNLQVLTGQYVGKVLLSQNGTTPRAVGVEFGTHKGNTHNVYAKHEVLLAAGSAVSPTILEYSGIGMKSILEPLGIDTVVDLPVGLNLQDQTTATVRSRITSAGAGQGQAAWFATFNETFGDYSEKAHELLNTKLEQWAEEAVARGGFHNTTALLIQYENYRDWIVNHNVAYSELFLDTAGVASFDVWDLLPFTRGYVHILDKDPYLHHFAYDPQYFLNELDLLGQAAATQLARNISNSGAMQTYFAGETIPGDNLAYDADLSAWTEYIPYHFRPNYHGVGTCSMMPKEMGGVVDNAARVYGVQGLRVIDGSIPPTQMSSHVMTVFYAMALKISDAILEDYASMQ
Experimental Protocol: Glucose oxidase-directed DCL of building blocks 1-4
Parameters: purchased Sigma Aldrich
Particulars: blank vs GOx template DCL; GOx 57 μM, Secox 5% mol, 24 h

# count of solved cases: 3
O=C(O)c1cccc(SSc2cc(SSc3cccc(C(=O)O)c3)cc(C(=O)O)c2)c1 [(1)(3)2]: -0,46
O=C(O)c1cccc(SSc2cc(SSc3ccccc3)cc(C(=O)O)c2)c1 [(3)(1)(4)]: 0,54
O=C(O)c1cc2cc(c1)SSc1cc(cc(C(=O)O)c1)SSc1cc(cc(C(=O)O)c1)SS2 [(1)3]: -0,21

Now, please, on to the next molecule.
Tell me the measured NC of RPA of c1ccc(SSc2ccccc2)cc1 [(4)2] , please.
39,73
